For each record, write down the corresponding melting point.

GET /values?readout=melting point&item= CCCCn1nnnc1-c1ccc(C(=O)NCC2CCCC2(C)C)cc1 (stereo unspecified)
106 to 109 °C

Request the reported melting point associated with N#CCNC(=O)C1(NC(=O)c2ccc(N3CCN(C(=O)OCC4c5ccccc5-c5ccccc54)CC3)cc2)CCCCC1
192 to 194 °C

So what's the measured melting point for this one? COC(=O)C(=O)c1ccc(Cl)cc1
56 to 57 °C

Need melting point, item CCCCCCCCCCCCC1(Cn2ccnc2)SCC(CCCC)S1 (stereo unspecified)
156 to 161 °C

What value of melting point has been recorded for this entry: CC(C)(C)NS(=O)(=O)c1cccc2c1SC(C)(C)C2
103 to 105 °C

Need melting point of OCC1OC(n2c(Cl)nc3c(NCc4ccccc4)ncnc32)C(O)C1O (stereo unspecified) , thanks.
90 to 92 °C

Attribution: a melting point compilation (Tetko et al.; mined from patent text by program, amines drawn as free bases though some values may be those of a salt)
